These entries and their values trace back to patent US10189809B2.

# TARGET OF ASSAY: Human soluble guanylate cyclase enzyme (hsGC) (Homo sapiens (Human), UniProt Q02108+Q02153)
# ASSAY TEXT: Purified human sGC enzyme activity assay
# Assay type: biochemical
# PROTOCOL CONDITIONS: 30 μM compound
OBSERVABLE: sGC Enzyme (specific activity at 30 μM)

1. Fc1ccccc1Cn1nc(-c2ccccn2)c(Br)c1C1CCC1 [Compound I-64]; B (B = 50 to <100)
2. Cc1ccc(-c2cc(-c3ccccn3)n(Cc3ccccc3F)n2)nc1 [Compound I-57]; B (B = 50 to <100)
3. COc1ccc(-c2cc(-c3ncccn3)nn2Cc2ccccc2F)cc1 [Compound I-60]; C (C = 100 to <200)
4. Nc1ccnc(-c2cc(-c3ccsc3)n(Cc3ccccc3F)n2)n1 [Compound I-49]; E (E = 500 to <1000)
5. COc1ccccc1-c1cc(-c2ncccn2)nn1Cc1ccccc1F [Compound I-37]; C (C = 100 to <200)
6. Fc1ccccc1Cn1nc(-c2ccccn2)cc1-c1ccco1 [Compound I-61]; D (D = 200 to <500)
7. Fc1cccc(-c2cc(-c3ccccn3)nn2Cc2ccccc2F)c1 [Compound I-9]; C (C = 100 to <200)
8. Cc1nnc(-c2cc(-c3ccccn3)nn2Cc2ccccc2F)o1 [Compound I-46]; D (D = 200 to <500)
9. COc1ccccc1-c1cc(-c2ccccn2)nn1Cc1ccccc1F [Compound I-36]; C (C = 100 to <200)
10. Cc1ccc(-c2cc(-c3ccccn3)nn2Cc2ccccc2F)nc1 [Compound I-56]; B (B = 50 to <100)
11. Fc1ccccc1Cn1nc(-c2ccccn2)cc1-c1ccccn1 [Compound I-1]; C (C = 100 to <200)
12. Fc1ccccc1Cn1nc(-c2ccccn2)cc1-c1csc2ccccc12 [Compound I-18]; C (C = 100 to <200)
13. Fc1ccccc1Cn1nc(-c2ccccn2)cc1-c1ccncc1 [Compound I-11]; C (C = 100 to <200)
14. Fc1ccccc1Cn1nc(-c2ncccn2)cc1-c1ncccn1 [Compound I-13]; C (C = 100 to <200)
15. Fc1ccccc1Cn1nc(-c2ncccn2)cc1-c1ccccc1F [Compound I-59]; C (C = 100 to <200)
16. Cc1cc(-c2cc(-c3ccccn3)nn2Cc2ccccc2F)c(C)s1 [Compound I-8]; D (D = 200 to <500)
17. Fc1ccccc1Cn1nc(-c2ccccn2)cc1-c1ccncn1 [Compound I-21]; C (C = 100 to <200)
18. Fc1ccccc1Cn1nc(-c2ncccn2)cc1-c1cccnc1 [Compound I-10]; D (D = 200 to <500)
19. COc1cccc(-c2cc(-c3ncccn3)nn2Cc2ccccc2F)n1 [Compound I-6]; D (D = 200 to <500)
20. Fc1ccccc1Cn1nc(-c2ncccn2)cc1-c1cnc2ccoc2c1 [Compound I-32]; D (D = 200 to <500)
21. Fc1ccccc1Cn1nc(-c2ccccn2)cc1-c1cccs1 [Compound I-35]; D (D = 200 to <500)
22. Fc1ccccc1Cn1nc(-c2ccccn2)c(Br)c1-c1ccccn1 [Compound I-62]; B (B = 50 to <100)
23. Cc1ccc(-c2c(Br)c(-c3ccccn3)nn2Cc2ccccc2F)cc1 [Compound I-67]; D (D = 200 to <500)
24. Cc1ccccc1-c1cc(-c2ccccn2)nn1Cc1ccccc1F [Compound I-24]; C (C = 100 to <200)
25. Fc1ccc(-c2cc(-c3ccccn3)nn2Cc2ccccc2F)cc1 [Compound I-12]; C (C = 100 to <200)
26. COc1ccc(-c2cc(-c3ccccn3)nn2Cc2ccccc2F)cc1 [Compound I-40]; C (C = 100 to <200)
27. COc1cccc(-c2cc(-c3ncccn3)n(Cc3ccccc3F)n2)n1 [Compound I-15]; C (C = 100 to <200)
28. COc1cccc(-c2cc(-c3ccccn3)nn2Cc2ccccc2F)c1 [Compound I-38]; C (C = 100 to <200)
29. Cc1cccc(-c2cc(-c3ccccn3)nn2Cc2ccccc2F)c1 [Compound I-22]; C (C = 100 to <200)
30. Fc1ccccc1Cn1nc(-c2ncccn2)cc1-c1ccsc1 [Compound I-4]; E (E = 500 to <1000)
31. Cc1cc(-c2cc(-c3ncccn3)nn2Cc2ccccc2F)c(C)s1 [Compound I-14]; C (C = 100 to <200)
32. Fc1ccccc1Cn1nc(-c2ccccn2)cc1-c1nccs1 [Compound I-27]; D (D = 200 to <500)
33. Fc1ccccc1Cn1nc(-c2ccccn2)cc1-c1nnco1 [Compound I-45]; C (C = 100 to <200)
34. Fc1ccccc1Cn1nc(-c2ncccn2)cc1-c1cccs1 [Compound I-66]; C (C = 100 to <200)
35. CS(=O)(=O)c1ccc(-c2cc(-c3ccccn3)n(Cc3ccccc3F)n2)nc1 [Compound I-50]; B (B = 50 to <100)
36. Fc1ccccc1Cn1nc(-c2ccccn2)cc1C1CCCCC1 [Compound I-48]; E (E = 500 to <1000)
37. Fc1ccccc1Cn1nc(-c2ccccn2)cc1-c1cnccn1 [Compound I-34]; C (C = 100 to <200)

---

Examples of compounds with documented Emax follow.
# TARGET OF ASSAY: soluble guanylate cyclase (sGC) (Homo sapiens (Human), UniProt Q02108+Q02153)
# Sequence (Q02153 whole entry): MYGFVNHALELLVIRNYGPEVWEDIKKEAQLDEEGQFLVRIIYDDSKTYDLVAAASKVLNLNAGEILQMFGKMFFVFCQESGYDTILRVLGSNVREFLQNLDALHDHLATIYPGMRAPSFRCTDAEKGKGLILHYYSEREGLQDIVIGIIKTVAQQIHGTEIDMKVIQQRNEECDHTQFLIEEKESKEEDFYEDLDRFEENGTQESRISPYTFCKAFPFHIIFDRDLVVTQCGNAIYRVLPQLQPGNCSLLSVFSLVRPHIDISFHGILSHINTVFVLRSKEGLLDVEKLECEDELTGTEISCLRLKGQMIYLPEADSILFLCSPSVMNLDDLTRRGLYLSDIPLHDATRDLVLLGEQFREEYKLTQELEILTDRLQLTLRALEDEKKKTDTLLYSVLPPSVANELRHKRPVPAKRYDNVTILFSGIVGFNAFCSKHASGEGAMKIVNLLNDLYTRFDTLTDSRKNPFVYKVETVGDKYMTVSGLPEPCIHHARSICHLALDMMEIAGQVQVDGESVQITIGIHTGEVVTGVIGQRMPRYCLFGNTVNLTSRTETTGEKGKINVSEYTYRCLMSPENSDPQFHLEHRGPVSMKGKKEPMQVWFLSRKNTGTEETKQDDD
# Sequence (Q02108 whole entry): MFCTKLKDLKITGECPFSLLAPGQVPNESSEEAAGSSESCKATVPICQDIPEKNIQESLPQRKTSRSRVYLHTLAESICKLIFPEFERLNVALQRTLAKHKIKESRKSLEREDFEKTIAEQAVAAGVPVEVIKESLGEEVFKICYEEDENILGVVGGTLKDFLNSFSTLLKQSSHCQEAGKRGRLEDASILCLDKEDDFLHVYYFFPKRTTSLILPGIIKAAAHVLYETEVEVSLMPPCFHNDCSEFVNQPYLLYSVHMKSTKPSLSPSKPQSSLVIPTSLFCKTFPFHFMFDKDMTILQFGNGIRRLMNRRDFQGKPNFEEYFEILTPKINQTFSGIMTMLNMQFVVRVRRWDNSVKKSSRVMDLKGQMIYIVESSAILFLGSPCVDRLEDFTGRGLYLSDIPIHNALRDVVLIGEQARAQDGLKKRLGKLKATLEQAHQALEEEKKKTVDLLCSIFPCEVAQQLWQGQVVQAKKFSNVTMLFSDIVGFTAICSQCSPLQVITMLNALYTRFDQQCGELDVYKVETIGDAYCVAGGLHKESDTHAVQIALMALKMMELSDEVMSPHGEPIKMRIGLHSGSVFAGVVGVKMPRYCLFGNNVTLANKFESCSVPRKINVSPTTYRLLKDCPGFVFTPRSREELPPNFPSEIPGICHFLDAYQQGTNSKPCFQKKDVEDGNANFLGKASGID
# ASSAY TEXT: sGC-HEK-cGMP assay run with SNP incubation (HEK WC assay)
# Format: cell-based
# PROTOCOL CONDITIONS: read-out: HEK WC Assay (% Emax at 10 μM with 10 uM SNP)
# Experimental: Human embryonic kidney cells (HEK293), endogenously expressing soluble guanylate cyclase (sGC), were used to evaluate the activity of test compounds. Compounds stimulating the sGC receptor should cause an increase in the intracellular concentration of cGMP. […] EC50 values were calculated from concentration-response curves generated with GraphPad Prism Software.
OBSERVABLE: Emax

1. Clc1ccccc1Cn1nc(-c2ncccn2)cc1-c1ccon1; 0 to 10%
2. Nc1nc(-c2cc(-c3ccon3)n(Cc3ccccc3F)n2)ncc1NC(=O)C1(C(F)(F)F)CCC1; 40 to 60%
3. CC(C)(C(=O)Nc1cnc(-c2cc(-c3ccon3)n(Cc3ccccc3F)n2)nc1N)n1cncn1; 40 to 60%
4. COc1ccc(CNc2nc(-c3cc(-c4ccon4)n(Cc4ccccc4F)n3)ncc2C(C)(C)O)cc1; 10 to 20%

---

# TARGET OF ASSAY: soluble guanylate cyclase (sGC) (Homo sapiens (Human), UniProt Q02108+Q02153)
# ASSAY TEXT: sGC-HEK-cGMP assay run with SNP incubation (HEK WC assay)
# Type: cell-based
# PROTOCOL CONDITIONS: read-out: HEK WC Assay (% Emax at 1 μM with 10 uM SNP)
OBSERVABLE: Emax

1. Nc1nc(-c2cc(-c3ccon3)n(Cc3ccccc3F)n2)ncc1NC(=O)C1(C(F)(F)F)CC1; 80 to 100%
2. Fc1cccc(F)c1Cn1nc(-c2ncccn2)cc1-c1ccon1; 10 to 20%
3. Nc1nc(-c2cc(-c3ccon3)n(Cc3ccccc3F)n2)ncc1NC(=O)c1ccc(F)cc1; 100 to 120%
4. Cc1nc(-c2cc(-c3ccon3)n(Cc3ccccc3F)n2)nc(O)c1F; 0 to 10%
5. C/C=C(\C)C(=O)Nc1cnc(-c2cc(-c3ccon3)n(Cc3ccccc3F)n2)nc1N; 40 to 60%
6. CC1(C(=O)Nc2cnc(-c3cc(-c4ccon4)n(Cc4ccccc4F)n3)nc2N)CCCO1 (stereo not shown); 20 to 40%
7. CC(C)(C)C(=O)Nc1cnc(-c2cc(-c3ccon3)n(Cc3ccccc3F)n2)nc1N; 60 to 80%
8. CC(C)(C)C(=O)Nc1cnc(-c2cc(-c3ncco3)n(Cc3ccccc3F)n2)nc1N; 20 to 40%
9. c1cnc(-c2cc(-c3ccon3)n(Cc3cscn3)n2)nc1; 0 to 10%
10. O=c1cc(O)oc2nc(-c3cc(-c4ccon4)n(Cc4ccccc4F)n3)nc(O)c12; 0 to 10%
11. O=C(Nc1cnc(-c2cc(-c3ccon3)n(Cc3ccccc3F)n2)nc1O)c1ccccc1; 0 to 10%
12. Nc1nc(-c2cc(-c3ccon3)n(Cc3ccccc3F)n2)ncc1NC(=O)c1nccs1; 60 to 80%
13. CO[C@@](C(=O)Nc1cnc(-c2cc(-c3ccon3)n(Cc3ccccc3F)n2)nc1N)(c1ccccc1)C(F)(F)F; 20 to 40%
14. OCCc1cnc(-c2cc(-c3ccon3)n(Cc3ccccc3F)n2)nc1O; 0 to 10%
15. FC(F)(F)c1ccccc1Cn1nc(-c2ncccn2)cc1-c1ccon1; 0 to 10%
16. Nc1cnc(-c2cc(-c3ccon3)n(Cc3ccccc3F)n2)nc1; 20 to 40%

---

# TARGET OF ASSAY: soluble guanylate cyclase (sGC) (Homo sapiens (Human), UniProt Q02108+Q02153)
# ASSAY TEXT: sGC-HEK-cGMP assay run with SNP incubation (HEK WC assay)
# Assay type: cell-based
# PROTOCOL CONDITIONS: read-out: HEK WC Assay (% Emax at 1 μM with 10 uM SNP)
# Description: Human embryonic kidney cells (HEK293), endogenously expressing soluble guanylate cyclase (sGC), were used to evaluate the activity of test compounds. Compounds stimulating the sGC receptor should cause an increase in the intracellular concentration of cGMP. […] EC50 values were calculated from concentration-response curves generated with GraphPad Prism Software.
OBSERVABLE: Emax

1. c1cnc(-c2cc(-c3ccon3)n(Cc3cncnc3)n2)nc1; 0 to 10%
2. CC(C)(CCl)C(=O)Nc1cnc(-c2cc(-c3ccon3)n(Cc3ccccc3F)n2)nc1N; 40 to 60%
3. Nc1nc(-c2cc(-c3ccon3)n(Cc3ccccc3F)n2)ncc1NC(=O)/C=C/c1ccccc1; 40 to 60%
4. Nc1nc(-c2cc(-c3ccon3)n(Cc3ccccc3F)n2)ncc1NC(=O)c1cccc(O)n1; 10 to 20%
5. CN(C(=O)C(C)(C)C)c1cnc(-c2cc(-c3ccon3)n(Cc3ccccc3F)n2)nc1N; 20 to 40%
6. CC(C)C(=O)Nc1cnc(-c2cc(-c3ccon3)n(Cc3ccccc3F)n2)nc1N; 40 to 60%
7. CC(C)(C)S(=O)(=O)Nc1cnc(-c2cc(-c3ccon3)n(Cc3ccccc3F)n2)nc1N; 10 to 20%
8. Fc1cccc(Cn2nc(-c3ncccn3)cc2-c2ccon2)c1; 20 to 40%
